Recorded melting point values for a group of compounds are listed next.
Measurement type: melting point

1) Clc1nc(-c2ncccn2)nc(Cl)c1-c1cccs1 :: 159 to 160 °C
2) O=C1CCC(=NNc2ccc(I)cc2)c2ncccc2N1 :: 204 to 205 °C
3) Cc1[nH]cnc1CN1CC2COc3ccccc3N2C1=O (stereo unspecified) :: 212 to 216 °C
4) CCCCCCCCCCCCCCOc1ccc(C(=O)OC)o1 :: 56 to 58 °C
5) Cc1ccc2c(c1)[nH]c(=O)n2CCO :: 159 °C
6) Cc1ncoc1C(C)(O)c1ccco1 (stereo unspecified) :: 73 to 75 °C

====

Item-by-item account of melting point
Measurement type: melting point

1) CC12CCC3=C(CCC(CCCC#N)O3)C1=CCC2=O (stereo not given) :: 100 °C
2) C#CCCCOc1ccc(/C=C/C(=O)Nc2ccccc2C(=O)O)cc1OC :: 166 to 168 °C
3) CN(C)S(=O)(=O)c1cccc(-c2cc(-c3nc(-c4ccc(C(F)(F)F)cc4)cc(C(F)(F)F)n3)ccn2)c1 :: 225 °C
4) CC12CCCc3cc(NC(=O)c4ccc(C(=O)O)cn4)cc(c31)CCC2 :: 212 to 213 °C
5) O=C(O)CCC/C=C\CN1C(=O)c2ccccc2C1=O :: 86 to 88 °C
6) COc1cccc2c(NCc3ccccc3C)nc(Cl)nc12 :: 279 to 281 °C
7) CCCCOC(=O)c1ccccc1SN(C(=O)NC(=O)c1c(F)cccc1F)c1ccc(C(F)(F)F)cc1 :: 79 to 81 °C
8) CC[C@H]1[C@@H](O)[C@H](C)C(=O)N1c1ccc(C#N)c(C(F)(F)F)c1 :: 113 to 119 °C
9) CC(C)(C)c1cc(-c2nn(Cc3ccc([N+](=O)[O-])cc3)c3ncccc23)cc(C(C)(C)C)c1O :: 143 to 145 °C
10) CN(C)c1ccc(NC(=O)NC2CCCC2)c(C(=O)NCC2CCN(C(c3ccccc3)c3ccccc3)CC2)c1 :: 211 to 213 °C
11) CC(C)(C)OC(=O)N[C@@H](Cc1cc(F)cc(F)c1)[C@H]1CO1 :: 99 °C
12) CC(C)(C)c1cc(CN(c2cccnc2)S(=O)(=O)c2cccc([N+](=O)[O-])c2)cc(C(C)(C)C)c1O :: 99 to 107 °C
13) Cc1cc(NCc2ccccc2)n(C)n1 :: 95 to 97 °C
14) CCOC(=O)c1cc(-c2ccc(Br)cc2)n(-c2ccc(S(C)(=O)=O)cc2)n1 :: 176 °C
15) Oc1cccc(C#CC=Cc2cccc(O)c2)c1 :: 146 to 147 °C
16) CCSc1c(C#N)nn(-c2c(Cl)cc(C(F)(F)F)cc2Cl)c1Br :: 134 to 140 °C
17) Cn1ccnc1CNC(=O)c1[nH]c2ccc(Cl)cc2c1S(=O)(=O)c1cccc(Cl)c1 :: 232 to 234 °C
18) Cc1nccc(C(N)=O)c1[N+](=O)[O-] :: 203 to 204 °C
19) NC(=S)Nc1ccc(C2=NNC(=O)Cc3cc4c(cc32)OCO4)cc1 :: 236 to 238 °C
20) CCOC(=O)CCc1ccc(OCCN2CCCC2=O)cc1O :: 112 to 115 °C
